- target: BACE2 (Rattus norvegicus (Rat), UniProt Q6IE75)
- Sequence (Q6IE75 63-514): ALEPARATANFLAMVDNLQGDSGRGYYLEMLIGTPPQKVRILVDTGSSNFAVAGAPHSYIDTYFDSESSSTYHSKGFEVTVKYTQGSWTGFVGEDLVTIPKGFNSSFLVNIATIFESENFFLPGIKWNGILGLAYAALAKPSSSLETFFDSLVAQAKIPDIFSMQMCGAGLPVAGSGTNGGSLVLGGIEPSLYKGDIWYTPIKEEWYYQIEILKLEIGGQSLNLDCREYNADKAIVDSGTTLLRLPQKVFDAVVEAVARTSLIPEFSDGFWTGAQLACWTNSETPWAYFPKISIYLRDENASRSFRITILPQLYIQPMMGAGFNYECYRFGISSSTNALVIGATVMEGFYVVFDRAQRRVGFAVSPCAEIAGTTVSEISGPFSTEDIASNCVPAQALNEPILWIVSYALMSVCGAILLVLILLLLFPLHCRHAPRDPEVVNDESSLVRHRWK
- protocol_summary: Assay for BACE inhibition by measuring cellular TMEM27 cleavage
- run_conditions: INS-TMEM27 (INS1e-derived) cells, shed hTMEM27 by ELISA
Rule: IC50 below 80 nM gives Yes. Equal to or above 80 nM gives No.

Reference set (4 entries):
Enquiry: For CC1(C)C(N)=N[C@](C)(c2cc(NC(=O)c3ccc(F)cn3)ccc2F)CCS1(=O)=O , is the recorded IC50 below the cut-off of 80 nM?
Return: No

Enquiry: For CC1C(N)=N[C@](C)(c2cc(NC(=O)c3[nH]ncc3Cl)ccc2F)CCS1(=O)=O (stereo in doubt) , is the recorded IC50 below the cut-off of 80 nM?
Return: No

Enquiry: For CC1SCC[C@@](C)(c2cc(NC(=O)c3ccc(Cl)cn3)ccc2F)N=C1N (stereo in doubt) , is the recorded IC50 below the cut-off of 80 nM?
Return: Yes

Enquiry: For CC1C(N)=N[C@](C)(c2cc(NC(=O)c3ccc(Cl)cn3)ccc2F)CCS1(=O)=O (stereo partly drawn) , is the recorded IC50 below the cut-off of 80 nM?
Return: Yes

Could you now consider this next compound?
Enquiry: For C[C@@]1(c2cc(NC(=O)c3ccc(Cl)cn3)ccc2F)CCSCC(N)=N1 , is the recorded IC50 below the cut-off of 80 nM?
Return: No

###

- target: BACE2 (Rattus norvegicus (Rat), UniProt Q6IE75)
- protocol_summary: Assay for BACE inhibition by measuring cellular TMEM27 cleavage
- run_conditions: INS-TMEM27 (INS1e-derived) cells, shed hTMEM27 by ELISA
assay_metric: IC50 (nM)
One number for each entry, in nM.

Observe how each entry below is paired with its result.
Enquiry: Please tell me the measured IC50 for C[C@@]1(c2cc(NC(=O)c3ccc(Cl)cn3)ccc2F)CCS(=O)(=O)CC(N)=N1 ; system: BACE2 (Rattus norvegicus (Rat), UniProt Q6IE75).
Return: 5

Enquiry: Please tell me the measured IC50 for C[C@@]1(c2cc(NC(=O)c3ccc(F)cn3)ccc2F)CCS(=O)(=O)CC(N)=N1 ; system: BACE2 (Rattus norvegicus (Rat), UniProt Q6IE75).
Return: 4

Enquiry: Please tell me the measured IC50 for CC1SCC[C@@](C)(c2cc(NC(=O)c3ccc(F)cn3)ccc2F)N=C1N (stereo in doubt) ; system: BACE2 (Rattus norvegicus (Rat), UniProt Q6IE75).
Return: 21

Next:
Enquiry: Please tell me the measured IC50 for CC1C(N)=N[C@](C)(c2cc(NC(=O)c3ccc(F)cn3)ccc2F)CCS1(=O)=O (stereo in doubt) ; system: BACE2 (Rattus norvegicus (Rat), UniProt Q6IE75).
Return: 2

###

- target: BACE1 (Homo sapiens (Human))
- protocol_summary: Cellular Aβ-lowering assay
- run_conditions: HEK293 cells expressing human APP695, Aβ40 in supernatant by ELISA
assay_metric: pIC50
Give bare numbers, as −log10 of the molar value.

Enquiry: Please look at this compound and report its pIC50: C[C@@]1(c2cc(NC(=O)c3ccc(Cl)cn3)ccc2F)CCSCC(N)=N1
Return: 8.20

Enquiry: Please look at this compound and report its pIC50: C[C@@]1(c2cc(NC(=O)c3ccc(F)cn3)ccc2F)CCSCC(N)=N1
Return: 7.80

Enquiry: Please look at this compound and report its pIC50: CC1(C)C(N)=N[C@](C)(c2cc(NC(=O)c3ccc(F)cn3)ccc2F)CCS1(=O)=O
Return: 7.21

Count: 5. Required value per item: pIC50.
1. C[C@@]1(c2cc(NC(=O)c3ccc(Cl)cn3)ccc2F)CCS(=O)(=O)CC(N)=N1
2. C[C@]1(c2cc(NC(=O)c3ccc(C#N)cn3)ccc2F)N=C(N)CS(=O)(=O)[C@H]2COC[C@@H]21 (relative stereo)
3. N#Cc1ccc(C(=O)Nc2ccc(F)c([C@]3(C(F)F)CCS(=O)(=O)CC(N)=N3)c2)nc1
4. CC1SCC[C@@](C)(c2cc(NC(=O)c3ccc(F)cn3)ccc2F)N=C1N (stereo in doubt)
5. CC1C(N)=N[C@](C)(c2cc(NC(=O)c3ccc(Cl)cn3)ccc2F)CCS1(=O)=O (some centres unmarked)

Return:
[8.52, 7.11, 6.59, 6.77, 7.52]

###

- target: BACE1 (Homo sapiens (Human), UniProt P56817)
- Sequence (P56817 46-501): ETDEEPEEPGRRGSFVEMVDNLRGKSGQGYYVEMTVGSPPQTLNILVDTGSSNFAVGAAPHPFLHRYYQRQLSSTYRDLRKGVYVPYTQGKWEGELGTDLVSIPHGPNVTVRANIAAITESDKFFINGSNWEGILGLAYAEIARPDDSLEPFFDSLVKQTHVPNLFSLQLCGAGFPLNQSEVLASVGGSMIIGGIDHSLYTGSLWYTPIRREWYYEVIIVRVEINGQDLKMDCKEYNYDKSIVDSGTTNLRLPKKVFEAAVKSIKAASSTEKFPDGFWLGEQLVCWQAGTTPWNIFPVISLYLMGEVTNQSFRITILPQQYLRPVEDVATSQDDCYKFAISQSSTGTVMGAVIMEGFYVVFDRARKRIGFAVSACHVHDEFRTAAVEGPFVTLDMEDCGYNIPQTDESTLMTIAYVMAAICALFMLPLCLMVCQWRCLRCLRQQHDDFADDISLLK
- protocol_summary: Cellular Aβ-lowering assay
- run_conditions: HEK293 cells expressing human APP695, Aβ40 in supernatant by ELISA
- Procedure: Cellular Aβ-Lowering Assay: Human HEK293 cells which are stably transfected with a vector expressing a cDNA of the human APP wt gene (APP695) were used to assess the potency of the compounds in a cellular assay. […] After stopping the reaction with one volume 1 N H2SO4 the reaction was measured in an ELISA reader at 450 nm wavelength. The concentrations of Aβ in the culture supernatants were calculated from a standard curve obtained with known amounts of pure Aβ peptide.
assay_metric: pIC50
Give bare numbers, as −log10 of the molar value.

Observe how each entry below is paired with its result.
Enquiry: Please look at this compound and report its pIC50: CC1SCC[C@@](C)(c2cc(NC(=O)c3ccc(Cl)cn3)ccc2F)N=C1N (stereo in doubt)
Return: 6.85

Enquiry: Please look at this compound and report its pIC50: C[C@@]1(c2cc(NC(=O)c3ccc(F)cn3)ccc2F)CCS(=O)(=O)CC(N)=N1
Return: 7.70

Enquiry: Please look at this compound and report its pIC50: CC1C(N)=N[C@](C)(c2cc(NC(=O)c3[nH]ncc3Cl)ccc2F)CCS1(=O)=O (stereo in doubt)
Return: 6.52

Enquiry: Please look at this compound and report its pIC50: CC1C(N)=N[C@](C)(c2cc(NC(=O)c3ccc(F)cn3)ccc2F)CCS1(=O)=O (stereo in doubt)
Return: 8.40

Enquiry: Please look at this compound and report its pIC50: CC1(C)C(N)=N[C@](C)(c2cc(NC(=O)c3ccc(C#N)cn3)ccc2F)CCS1(=O)=O
Return: 7.28

Next:
Enquiry: Please look at this compound and report its pIC50: CC1(C)C(N)=N[C@](C)(c2cc(NC(=O)c3[nH]ncc3Cl)ccc2F)CCS1(=O)=O
Return: 5.64
